# Test system: OVCAR-3 ovarian
# experiment_summary: NCI tumour cell line growth inhibition, 48 h; in the data active = GI50 below about 0.43 µM; inactive = the rest
Select the correct class. Options are 1 for active, -1 for inactive and nothing else.

Solved entries:
{"columns": ["molecule_smiles", "class_assignment"],
 "data": [
  ["CCN1CCN(Cc2ccc(NC(=O)Nc3ccc(-n4ccc5c(NC(=O)c6ccccc6)nccc54)cc3)cc2C(F)(F)F)CC1", -1],
  ["CC[C@H](C)[C@H](NC(=O)c1cnccn1)C(=O)N(C)[C@H](C[C@@H](OC(C)=O)c1nc(C(=O)N[C@@H](Cc2ccccc2)C[C@H](C)C(=O)OC)cs1)C(C)C", -1],
  ["C#C[C@]1(O)CC[C@H]2[C@@H]3CC=C4c5nc(Nc6ccccn6)sc5CC[C@]4(C)[C@H]3CC[C@@]21C", -1]
]}

Next, consider the following compound.
Query: Entry "COc1ccc(C(=O)N2c3ccccc3Sc3ccccc32)c(F)c1" : call = ?
Reply: 1

###

# System: SR leukemia
# experiment_summary: NCI tumour cell line growth inhibition, 48 h
Below is a list of entries, each paired with its recorded TGI value.
# number only, unit µM dropped from output

{"columns": ["compound", "meas_value"],
 "data": [
  ["COc1ccc(OC)c(NC(=O)C(=O)C(C(=O)c2ccccc2F)C2OC(=O)c3ccccc32)c1 (stereo not given)", 89.1]
]}

Next item in the queue.
Query: Tell me the measured TGI of "CC(C)(C)c1cc(/C=C2/NC(=O)NC2=O)cc(C(C)(C)C)c1O" , please.
Reply: 33.2

###

# Test system: NCI-H226 lung
# experiment_summary: NCI tumour cell line growth inhibition, 48 h
measured_metric: TGI (µM)
# number only, unit µM dropped from output

{"columns": ["molecule", "TGI [µM]"],
 "data": [
  ["CNC(=O)Nc1ccc(-c2nc(N3CCOCC3)nc3c2cnn3C2CCOCC2)cc1", 4.26]
]}

Query: Query for NCI-H226 lung: what TGI does the record show for "CCOc1snc(C(Cl)(Cl)Cl)c1Cl" ?
Reply: 32.5

Query: Query for NCI-H226 lung: what TGI does the record show for CC1(C)C(=O)C(O)=CC2C1=CCC1C2(C)C(=O)CC2(C)C(C(C)(O)C(=O)CC(O)C(C)(C)O)C(O)CC12C (stereo unspecified) ?
Reply: 7.31

Query: Query for NCI-H226 lung: what TGI does the record show for "COC(=O)C1=C(C)NC(C)=C(C(=O)OC)C1c1cccc(N=O)c1" ?
Reply: 37.8

###

# Tested on: MDA-MB-231 breast
# experiment_summary: NCI tumour cell line growth inhibition, 48 h
Below is a list of entries, each paired with its recorded TGI value.

Query: Tell me the measured TGI of "NCCN(CCN(C(=O)Nc1ccccc1)c1ccccc1)C(=O)Nc1ccccc1" , please.
Reply: > 100 µM

Query: Tell me the measured TGI of C#CCOCC12C=CC(O1)C1COC(=O)C12 (centres undefined) , please.
Reply: > 100 µM

Query: Tell me the measured TGI of "Cc1cccc(NS(=O)(=O)c2ccc(N=Nc3c(O)c(C(=O)O)cc4ccccc34)cc2)n1" , please.
Reply: > 100 µM

Query: Tell me the measured TGI of "Cn1cc(C2=C(c3cn(C)c4ccc(N)cc34)C(=O)NC2=O)c2ccccc21" , please.
Reply: > 25 µM

Query: Tell me the measured TGI of "N#Cc1ccc(-c2nc(C#N)c(N)o2)cc1" , please.
Reply: > 10 µM

Query: Tell me the measured TGI of "COc1cc2cc(Oc3ccc(NC(=O)c4cccc(C(F)(F)F)c4)cc3)c(C)nc2cc1OC" , please.
Reply: 46.6 µM

Query: Tell me the measured TGI of "O=C1CS/C(=N/N=C/c2cn(Cc3ccc(Cl)cc3Cl)c3ccccc23)N1" , please.
Reply: 48 µM

Query: Tell me the measured TGI of "CSc1ccc(C2=Nn3c(nnc3-c3ccc(F)c(Cl)c3)SC2)cc1" , please.
Reply: 21 µM

// data source = PubChem BioAssay (NCI)
